- ASSAY TARGET: UniProtKB Q9UKV0
- Sequence (Q9UKV0 whole entry): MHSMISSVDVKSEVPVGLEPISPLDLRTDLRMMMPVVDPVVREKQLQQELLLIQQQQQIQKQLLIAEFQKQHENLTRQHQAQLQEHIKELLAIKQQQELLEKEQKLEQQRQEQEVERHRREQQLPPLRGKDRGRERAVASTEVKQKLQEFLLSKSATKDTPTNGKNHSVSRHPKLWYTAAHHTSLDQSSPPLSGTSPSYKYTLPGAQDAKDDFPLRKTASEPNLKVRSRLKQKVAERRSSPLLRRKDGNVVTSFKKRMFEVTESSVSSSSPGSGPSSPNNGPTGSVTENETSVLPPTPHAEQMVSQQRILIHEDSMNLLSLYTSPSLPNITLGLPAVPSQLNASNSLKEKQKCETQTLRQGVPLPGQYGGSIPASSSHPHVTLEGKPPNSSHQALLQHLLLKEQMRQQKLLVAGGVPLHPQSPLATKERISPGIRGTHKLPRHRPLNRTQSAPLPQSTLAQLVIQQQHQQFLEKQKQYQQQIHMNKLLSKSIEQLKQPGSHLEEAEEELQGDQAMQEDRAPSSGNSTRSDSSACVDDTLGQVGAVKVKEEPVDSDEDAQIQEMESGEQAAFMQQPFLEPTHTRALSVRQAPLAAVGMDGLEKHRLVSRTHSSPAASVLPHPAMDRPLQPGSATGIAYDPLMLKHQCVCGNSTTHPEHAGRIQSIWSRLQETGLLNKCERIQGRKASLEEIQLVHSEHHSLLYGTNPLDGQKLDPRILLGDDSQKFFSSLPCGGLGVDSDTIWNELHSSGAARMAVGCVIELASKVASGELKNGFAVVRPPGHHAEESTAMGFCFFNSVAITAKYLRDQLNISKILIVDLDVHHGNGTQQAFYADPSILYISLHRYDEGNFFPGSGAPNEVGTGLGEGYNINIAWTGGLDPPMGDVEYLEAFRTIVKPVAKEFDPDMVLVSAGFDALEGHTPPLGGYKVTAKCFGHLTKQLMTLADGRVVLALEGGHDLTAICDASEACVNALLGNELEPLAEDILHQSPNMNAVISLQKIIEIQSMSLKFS
- ASSAY INFO: Inhibition of recombinant human HDAC9 using acetylated luminogenic substrate incubated for 10 mins by ultra-glo recombinant firefly luciferase based luminescence assay
READOUT: IC50 (nM)
Answer with a number only, understood to be in nM.

The compound listed as `CCOc1ccc(-c2nc(C(=O)NCc3ccc(C(=O)NO)cc3)c3[nH]c(=O)n(-c4cccnc4OC)c3n2)cn1` has a reported IC50 of 19.7

---

- ASSAY TARGET: Histone deacetylase 1 (Homo sapiens, UniProt Q13547)
- Sequence (Q13547 whole entry): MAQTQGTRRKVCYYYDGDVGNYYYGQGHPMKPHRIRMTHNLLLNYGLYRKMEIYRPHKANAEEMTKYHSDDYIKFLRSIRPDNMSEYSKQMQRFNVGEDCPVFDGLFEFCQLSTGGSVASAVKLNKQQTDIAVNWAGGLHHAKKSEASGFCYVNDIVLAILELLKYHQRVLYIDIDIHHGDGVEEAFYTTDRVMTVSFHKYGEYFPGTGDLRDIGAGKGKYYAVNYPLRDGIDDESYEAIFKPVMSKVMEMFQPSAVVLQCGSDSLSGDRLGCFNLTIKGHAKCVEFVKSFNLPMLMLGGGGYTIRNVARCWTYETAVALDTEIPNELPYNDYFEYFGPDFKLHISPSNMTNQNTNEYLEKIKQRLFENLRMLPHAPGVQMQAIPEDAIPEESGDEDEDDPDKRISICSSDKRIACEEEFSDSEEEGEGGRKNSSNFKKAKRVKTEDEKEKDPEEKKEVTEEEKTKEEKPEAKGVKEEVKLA
- ASSAY INFO: Inhibition of recombinant human HDAC1 using acetylated luminogenic substrate incubated for 10 mins by ultra-glo recombinant firefly luciferase based luminescence assay
READOUT: pIC50
# pIC50 is unitless: minus log10 of the molar concentration; print number only

The compound listed as `CCOc1ccc(-c2nc(C(=O)NCc3ccc(C(=O)NO)cc3)c3[nH]c(=O)n(-c4cccnc4OC)c3n2)cn1` has a reported pIC50 of 8.29

---

- ASSAY TARGET: Histone deacetylase 3 (Homo sapiens, UniProt O15379)
- Sequence (O15379 whole entry): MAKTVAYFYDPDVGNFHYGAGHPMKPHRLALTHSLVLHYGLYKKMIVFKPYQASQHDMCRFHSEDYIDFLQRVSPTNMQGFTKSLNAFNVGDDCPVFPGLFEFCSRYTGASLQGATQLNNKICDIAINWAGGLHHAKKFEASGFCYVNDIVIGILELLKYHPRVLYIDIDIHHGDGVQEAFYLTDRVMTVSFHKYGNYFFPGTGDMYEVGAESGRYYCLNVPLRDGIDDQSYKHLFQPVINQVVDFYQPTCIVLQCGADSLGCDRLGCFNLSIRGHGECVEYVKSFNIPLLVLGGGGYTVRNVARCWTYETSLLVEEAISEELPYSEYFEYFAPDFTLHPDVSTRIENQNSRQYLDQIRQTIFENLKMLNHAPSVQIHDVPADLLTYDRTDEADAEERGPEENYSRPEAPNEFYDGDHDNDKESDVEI
- ASSAY INFO: Inhibition of recombinant human HDAC3 using acetylated luminogenic substrate incubated for 10 mins by ultra-glo recombinant firefly luciferase based luminescence assay
READOUT: pIC50
# pIC50 is unitless: minus log10 of the molar concentration; print number only

The molecule listed as `CCOc1ccc(-c2nc(C(=O)NCc3ccc(C(=O)NO)cc3)c3[nH]c(=O)n(-c4cccnc4OC)c3n2)cn1` has a reported pIC50 of 8.06

---

Kindly state IC50 for each of the entries shown.
- ASSAY TARGET: Histone deacetylase
- ASSAY INFO: Inhibition of HDAC in human HeLa cells nuclear extract
- Assay type: subcellular, Nucleus
Answer with a number only, understood to be in µM.

The molecule listed as `CCOc1ccc(-c2nc(C(=O)NOCCCCCC(=O)NO)c3[nH]c(=O)n(-c4ccccc4OC)c3n2)cc1` has a reported IC50 of 0.13

The molecule listed as `COc1ccccc1-n1c(=O)[nH]c2c(C(=O)NCCCCCCC(=O)NO)nc(C(C)C)nc21` has a reported IC50 of 0.2

The molecule listed as `CCOc1ccc(-c2nc(C(=O)NCCCCCCC(=O)NO)c3[nH]c(=O)n(-c4cccnc4OC)c3n2)cn1` has a reported IC50 of 0.002

---

- Test system: CL1-0
- ASSAY INFO: Antiproliferative activity against human CL1-0 cells harboring wild-type EGFR assessed as inhibition of cell growth by SRB assay
- Format: functional, cell-based
READOUT: pIC50
# pIC50 is unitless: minus log10 of the molar concentration; print number only

The molecule listed as `CCOc1ccc(-c2nc(C(=O)NCCCCCCC(=O)NO)c3[nH]c(=O)n(-c4ccccc4OC)c3n2)cc1` has a reported pIC50 of 7.22

---

- ASSAY INFO: Antiproliferative activity against human CL83 cells harboring wild-type EGFR assessed as inhibition of cell growth by SRB assay
- Assay type: functional, cell-based
READOUT: pIC50
# pIC50 is unitless: minus log10 of the molar concentration; print number only

The compound listed as `CCOc1ccc(-c2nc(C(=O)NCCCCCCC(=O)NO)c3[nH]c(=O)n(-c4ccccc4OC)c3n2)cc1` has a reported pIC50 of 6.49

---

Kindly state IC50 for each of the entries shown.
- ASSAY TARGET: Histone deacetylase
- ASSAY INFO: Inhibition of HDAC in human HeLa cells nuclear extract
- Type: subcellular, Nucleus
Answer with a number only, understood to be in µM.

The compound listed as `CCOc1ccc(-c2nc(C(=O)NCCCCCCC(=O)CSC(C)=O)c3[nH]c(=O)n(-c4ccccc4OC)c3n2)cc1` has a reported IC50 of 2.83

The compound listed as `CCOc1ccc(-c2nc(C(=O)NCc3ccc(C(=O)NO)cc3)c3[nH]c(=O)n(-c4ccccc4OC)c3n2)cc1` has a reported IC50 of 0.25

The compound listed as `CCOc1ccc(-c2nc(C(=O)NCCCc3nc(C(=O)NO)cs3)c3[nH]c(=O)n(-c4ccccc4OC)c3n2)cc1` has a reported IC50 of 14.2

The compound listed as `CCOc1ccc(-c2nc(C(=O)NCCOCCOCC(=O)NO)c3[nH]c(=O)n(-c4ccccc4OC)c3n2)cc1` has a reported IC50 of 10.8

The compound listed as `COc1ccc(-c2nc(C(=O)NCCCCCCC(=O)NO)c3[nH]c(=O)n(-c4ccccc4OC)c3n2)cc1O` has a reported IC50 of 0.01

The compound listed as `CCOc1ccc(-c2nc(C(=O)NCc3ccc(C(=O)NO)cc3)c3[nH]c(=O)n(-c4cccnc4OC)c3n2)cn1` has a reported IC50 of 0.04

The compound listed as `CCOc1ccc(-c2nc(C(=O)NCCCCCCC(=O)NO)c3[nH]c(=O)n(-c4ccccc4OC)c3n2)cn1` has a reported IC50 of 0.04

Origin of measurements: ChEMBL document CHEMBL5518174
